quantityMeasured: melting point

compound	quantityMeasured	obsValue
Cc1ccc(N2C(=O)NC(CCC(=O)O)C2=O)cc1Cl (stereo unspecified)	melting point	193 to 195 °C
COc1cccc(-c2nonc2N)c1	melting point	74 to 76 °C
CC(C)(C)OC(=O)N1CCc2ccc(N)cc2C1	melting point	93 to 95 °C
CC(C)(C)OC(=O)N1CCNc2ccccc2C1	melting point	69 to 71 °C
OCc1cn(-c2ccccc2Cl)nn1	melting point	87 to 89 °C
Cc1c(NC(=O)CCCl)cccc1[N+](=O)[O-]	melting point	131 to 133 °C
OC(CC1COCCN1)c1ccccc1 (stereo unspecified)	melting point	74 to 76 °C
NC1CCN(C(=O)C2CC2)CC1	melting point	53 to 55 °C
NC(C(=O)O)c1ccc(Cl)cc1 (stereo unspecified)	melting point	219 to 221 °C
Cn1cc(/C=C/C(=O)O)c(=O)n(C)c1=O	melting point	272 to 274 °C
N#CC1=C(C(=O)O)CCC1	melting point	108 to 110 °C
COc1cc(C(=O)O)cc(Cl)c1OC	melting point	191 to 193 °C
CCc1ccc(OCc2nnc(S)n2C(C)c2ccccc2)cc1 (stereo unspecified)	melting point	143 to 145 °C
O=C1C=CC(=O)N1CCc1ccc(F)cc1	melting point	79 to 81 °C
CN(c1ccccc1)S(=O)(=O)c1ccc(Cl)c(C(=O)O)c1	melting point	151 to 153 °C
O=C(O)c1cnn(-c2ccccc2Cl)c1	melting point	170 to 172 °C

---

melting point values, listed per item

compound	melting point
NN=C(Nc1ccccc1)c1cc(F)cc(F)c1	99 to 101 °C
NCC(O)COc1cccc(C(F)(F)F)c1 (configuration not stated)	66 to 68 °C
O=S1(=O)CCC(NC2CCNCC2)C1 (configuration not stated)	84 to 86 °C
O=C(O)c1cn(Cc2cccc(F)c2)nn1	189 to 191 °C
N#Cc1ccc(S(=O)(=O)N2CCCC2)cc1	103 to 105 °C
CCOc1ccc(NC(=O)CCl)cc1S(=O)(=O)N1CCCCC1	129 to 131 °C
O=C1C(=O)N(Cc2ncon2)c2ccc(Br)cc21	197 to 199 °C
O=C1Nc2c(F)ccc(Br)c2C1=O	274 to 276 °C
O=S(=O)(Cl)Cc1c(Cl)cccc1Cl	70 to 72 °C
c1n[nH]cc1C1CCNCC1	149 to 151 °C
COc1ccc(-c2ccc(CN)s2)cc1	114 to 116 °C
CC(C)n1cnnc1-c1ccccc1N	97 to 99 °C
CCOC(=O)c1ncccc1N	127 to 129 °C
O=C1COc2ccc(C(=O)CCl)cc2N1	228 to 230 °C
Cc1ccc(S(=O)(=O)Cl)cc1S(=O)(=O)N1CCCCC1	111 to 113 °C
C1CCC(c2nnn[nH]2)CC1	109 to 111 °C
CN(C)S(=O)(=O)c1cccc(C(=O)O)c1	146 to 150 °C
O=C(O)C1Cc2ccccc2CN1C(=O)c1ccccc1 (configuration not stated)	141 to 143 °C
O=C(CCl)NCc1ccc(-c2ccc(Cl)cc2)o1	213 to 218 °C
NCCN1C(=O)C2C3C=CC(C3)C2C1=O (configuration not stated)	69 to 71 °C
Cc1nc(-c2ccccc2)c(N)n1C	145 to 147 °C
NC(Cc1ccc2c(c1)OCO2)C(=O)O (configuration not stated)	249 to 251 °C
CC(C)C1CNC(=O)C1 (configuration not stated)	98 to 100 °C
O=C(O)c1ccc(-c2cscn2)cc1	278 to 280 °C
NNC(=O)c1ccc(S(=O)(=O)N2CCN(Cc3ccccc3)CC2)cc1	135 to 137 °C
CC(=O)c1ccc(OC(C)C)cc1	42 to 44 °C
N#CCC(=O)NCC1CCCO1 (configuration not stated)	90 to 94 °C
CS(=O)(=O)c1cccc(C(=O)NN)c1	144 to 146 °C
O=C(O)c1sc2cc(C(F)(F)F)ccc2c1Cl	205 to 207 °C
CC1Cc2cc(C(=O)O)ccc2N1S(C)(=O)=O (configuration not stated)	194 to 196 °C
O=C(O)C1CC(=O)N(Cc2cccc(C(F)(F)F)c2)C1 (configuration not stated)	109 to 111 °C
Cn1cc(C#N)cc1C(=O)C(Cl)(Cl)Cl	146 to 148 °C

---

melting point values, listed per item
quantityMeasured: melting point

compound	quantityMeasured	obsValue
CN(C)C(=O)Cn1ccc2cc(N)ccc21	melting point	124 to 126 °C
COc1ccc(-c2csc(N)n2)cc1Br	melting point	188 to 190 °C
CC1(C)NC(=O)N(CCOc2ccc(N)cc2)C1=O	melting point	147 to 149 °C
Sc1nnc(-c2ccccc2Br)o1	melting point	200 to 202 °C
Cc1ccc(-c2nc(C(=O)O)cs2)o1	melting point	194 to 196 °C
CC(C)(C)OC(=O)NC(C)(C(=O)O)C1CC1 (stereo not drawn)	melting point	140 to 142 °C
O=C(O)CNC(=O)Nc1ccccc1	melting point	196 to 198 °C
COc1ccccc1C(N)=S	melting point	113 to 115 °C
O=C(O)CC(=O)Nc1nccs1	melting point	181 to 183 °C
COC(=O)c1cc2ccccn2c1	melting point	94 to 96 °C
CCc1ccc(Nc2nnc(SCC(=O)O)s2)cc1	melting point	250 to 252 °C
NS(=O)(=O)c1cncc(Br)c1	melting point	199 to 201 °C
N#CC1=C(N)CCC1	melting point	146 to 148 °C

---

melting point values, listed per item
quantityMeasured: melting point

compound	obsValue
Nc1nc(Cl)ccc1F	84 to 86 °C
CC(=O)Nc1cccs1	146 to 148 °C
O=C(O)c1cn(Cc2ccccc2)nc1-c1cccs1	131 to 133 °C
O=C(O)C1CC(=O)N(c2ccc3c(c2)CCC3)C1 (stereo unspecified)	179 to 181 °C
Clc1cc(C2CC2)nc2ncnn12	99 to 101 °C
COc1ccc(Cn2ncc(C)c2N)cc1OC	98 to 100 °C
NS(=O)(=O)CCSc1ccccc1	106 to 108 °C
O=S1(=O)N=C2CCCCCN2C(c2ccncc2)N1 (stereo unspecified)	176 to 178 °C
O=[N+]([O-])c1ccc(N2CCNCC2)cn1	147 to 149 °C
OC1CCN(c2nncc3ccccc23)CC1	135 to 137 °C
COC(=O)c1ccc2c(c1)S(=O)(=O)N=C(C)N2	275 to 277 °C
Nc1nc(-c2cc3ccccc3o2)cs1	243 to 245 °C
CCOc1ccc(C(=O)C(C)Cl)cc1 (stereo unspecified)	62 to 64 °C
Nc1cc(Cl)c(Cl)c(C(=O)O)c1	199 to 201 °C
O=C1CCC2(CCN1)OCCO2	101 to 103 °C
Cc1cc(NC(N)=O)ccc1Br	185 to 187 °C
O=C1NS(=O)(=O)c2ccc(Br)cc21	245 to 247 °C
OCCCc1nc2ncccn2n1	76 to 78 °C
Cc1ccccc1CNc1ccccc1N	71 to 73 °C
O=C(O)CC1(CC(=O)c2ccc(Cl)s2)CCCCC1	102 to 104 °C
Cc1nc(Cl)nc(N(C)C)n1	81 to 83 °C
Cc1cccc2[nH]c(C(=O)O)cc12	216 to 218 °C
Cc1ccc(S(=O)(=O)NC(C)(C)C)cc1C(=O)O	180 to 182 °C
CNc1nc(N)n[nH]1	158 to 160 °C
O=C(O)c1c[nH]c(=O)[nH]1	232 to 236 °C
O=S(CCCl)c1ccccc1 (stereo unspecified)	34 to 36 °C
O=C1CCOc2cc(Br)ccc21	89 to 91 °C
NCc1cccnc1N1CCC(C(N)=O)CC1	129 to 131 °C
O=C(O)c1cnn(-c2ccccn2)c1	186 to 188 °C
O=c1cc(-c2ccccc2)c2cc(Cl)ccc2[nH]1	257 to 259 °C
Sc1nnc(N2CCOCC2)n1CC1CCCO1 (stereo unspecified)	186 to 188 °C
N#Cc1ccnc(S)c1	227 to 229 °C
NC(=S)c1ccc(N)cc1	189 to 191 °C
Cc1nn(C)c2ncc(S(=O)(=O)Cl)cc12	134 to 136 °C
O=C1CN=C(S)N1C1CCCCCC1	72 to 74 °C
CNc1ccncc1[N+](=O)[O-]	157 to 159 °C
O=C(O)c1nn(-c2c(Cl)cc(Cl)cc2Cl)cc1O	194 to 196 °C
CCCCCCOc1ccc(C(=O)O)cc1OC	122 to 124 °C
Cc1nc(NN)c2c3c(sc2n1)CCC3	182 to 184 °C
COc1c(Br)cc(Br)cc1C=O	93 to 96 °C
N#Cc1cc(-c2ccccc2)sc1N	190 to 192 °C
Cc1cc(C)n(-c2ccc(C(=O)O)cc2F)n1	184 to 186 °C
Cc1ccc(Cl)c2c1NC(=O)C2=O	275 to 277 °C
Cc1ccc(NC(=O)C2CCCNC2)nc1 (stereo unspecified)	144 to 146 °C
CC(=O)CC(=O)Nc1ccc(Br)cc1	137 to 139 °C
COc1ccc(CN2CCNCC2)cc1OC	27 to 40 °C
CC(=O)c1cccc(OCCCC(=O)O)c1	90 to 92 °C
O=C(O)c1cc(O)cs1	206 to 208 °C
NNC(=O)CCc1ccc(S(=O)(=O)N2CCOCC2)cc1	128 to 130 °C
O=C1COc2ccc(C(=O)O)cc2N1	228 to 230 °C
Nc1ccc(NCc2ccccn2)cc1	89 to 91 °C
